Assay: Evaluation of solubility in solvents at room temperature
Type: physicochemical
Conditions: water
Where a name gives a salt, the structure may show the parent alone.

| COMPOUND | solubility |
| --- | --- |
| Cc1nc(-c2ccc(OCCCCCOc3ccc(C(=N)NO)cc3)cc2)c(C(C)C)s1 [2 Ethansulfonic acid salt] | 4420 µg/mL |

---

Assay: Pharmacokinetic evaluation (bioavailability) in SD rats
Assay type: in vivo
Settings: SD, rat, in vivo, 50 mg/kg
Structures can show the parent of a compound that is named as a salt.

| MOLECULE | Cmax, ng/mL |
| --- | --- |
| Cc1nc(-c2ccc(OCCCCCOc3ccc(C(=N)NO)cc3)cc2)c(C(C)C)s1 [2 Ethansulfonic acid salt] | 2360 |
